Reference source for all entries: ChEMBL document CHEMBL3232806

systemName: NAD-dependent protein deacetylase sirtuin-1 (Homo sapiens)
Sequence (whole entry): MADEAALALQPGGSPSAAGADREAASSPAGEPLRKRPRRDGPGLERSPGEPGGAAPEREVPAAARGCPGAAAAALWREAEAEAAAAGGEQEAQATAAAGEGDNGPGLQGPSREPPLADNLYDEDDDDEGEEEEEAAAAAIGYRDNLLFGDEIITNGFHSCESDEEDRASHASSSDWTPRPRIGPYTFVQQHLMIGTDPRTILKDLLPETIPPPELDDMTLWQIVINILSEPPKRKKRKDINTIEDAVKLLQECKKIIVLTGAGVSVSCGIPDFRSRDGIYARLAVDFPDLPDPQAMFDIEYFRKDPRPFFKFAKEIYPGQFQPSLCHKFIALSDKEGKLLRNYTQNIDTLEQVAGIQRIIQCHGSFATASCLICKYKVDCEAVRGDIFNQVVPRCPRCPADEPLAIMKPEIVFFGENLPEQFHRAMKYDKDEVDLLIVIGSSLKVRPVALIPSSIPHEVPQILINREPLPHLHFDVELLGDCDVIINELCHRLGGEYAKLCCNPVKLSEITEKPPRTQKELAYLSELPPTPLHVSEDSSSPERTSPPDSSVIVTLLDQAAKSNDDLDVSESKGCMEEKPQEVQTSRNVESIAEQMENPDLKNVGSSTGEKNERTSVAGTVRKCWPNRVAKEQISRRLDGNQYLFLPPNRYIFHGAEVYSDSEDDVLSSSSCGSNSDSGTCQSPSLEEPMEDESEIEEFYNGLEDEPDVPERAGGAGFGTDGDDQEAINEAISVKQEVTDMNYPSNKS
assayText: Inhibition of C-terminal His-6-tagged recombinant human SIRT1 expressed in Escherichia coli BL21(DE3) at 50 uM by luminescence assay relative to control
measuredMetric: inhibition (%)

- Cc1ccc(-c2[nH][nH]c(=O)c2Cc2c(O)ccc3ncccc23)cc1: 39
- COc1cc2ccccc2c(Cc2c(-c3ccc(C)cc3)[nH][nH]c2=O)c1O: 78
- O=c1[nH][nH]c(-c2ccc(F)cc2)c1Cc1c(O)ccc2ccccc12: 24
- Cc1cc(Cl)nc2ccc(O)c(Cc3c(-c4ccccc4)[nH][nH]c3=O)c12: 27
- Cc1ccc(-c2c(Cc3c(O)ccc4cc(Br)ccc34)c(=O)on2C)cc1: 11
- Cc1ccc(-c2[nH][nH]c(=O)c2Cc2c(O)ccc3cc(C)ccc23)cc1: 39
